The reported numbers originate from patent US20100317046A1.

TESTED_TARGET: endogenous FSHR ("WT") (Homo sapiens, UniProt P23945, E197A/L198V/N112T)
Construct: The 2.1 kb PCR fragment was then cloned into EcoRV-EcoRI site of CMVp expression vector
Sequence (P23945 18-695 N112T/E197A/L198V): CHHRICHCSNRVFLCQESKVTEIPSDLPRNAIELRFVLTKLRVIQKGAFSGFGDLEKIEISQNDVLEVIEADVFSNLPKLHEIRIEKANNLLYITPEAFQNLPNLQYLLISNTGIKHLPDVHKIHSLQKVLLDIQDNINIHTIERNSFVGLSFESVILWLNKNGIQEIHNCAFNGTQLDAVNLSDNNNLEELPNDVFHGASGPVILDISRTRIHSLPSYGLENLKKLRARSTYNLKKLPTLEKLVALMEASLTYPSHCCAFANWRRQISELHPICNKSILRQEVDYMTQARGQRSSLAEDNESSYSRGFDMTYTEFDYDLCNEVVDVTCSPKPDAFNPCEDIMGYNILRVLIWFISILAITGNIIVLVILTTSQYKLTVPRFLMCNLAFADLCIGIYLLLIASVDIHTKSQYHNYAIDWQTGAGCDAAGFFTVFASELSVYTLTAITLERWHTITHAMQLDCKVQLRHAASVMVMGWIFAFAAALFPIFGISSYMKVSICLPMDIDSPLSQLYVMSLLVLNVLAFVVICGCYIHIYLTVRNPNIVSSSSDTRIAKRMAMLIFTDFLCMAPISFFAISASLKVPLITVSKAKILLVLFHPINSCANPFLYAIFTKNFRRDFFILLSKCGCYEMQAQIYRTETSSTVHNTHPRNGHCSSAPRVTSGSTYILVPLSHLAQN
ASSAY_OVERVIEW: Alpha Screen cAMP accumulation, endogenous FSHR (WT)
CONDITION: 293 cells expressing WT FSHR, FIG. 3
ASSAY_READOUT: EC50

Query: Identify measured EC50 obtained with endogenous FSHR ("WT") (Homo sapiens, UniProt P23945, E197A/L198V/N112T) for CCCCCc1ccc(C(=O)N2CCCCC2C(=O)Nc2ccc3c(c2)c2ccccc2n3CC)c(=O)o1 (stereo not shown) .
Reply: ~3 nM
